- ASSAYED TARGET: Ubiquitin-activating enzyme e1, putative (Leishmania donovani (strain BPK282A1))
- EXPERIMENTAL DETAILS: Leishmania donovani Ubiquitin Activating Enzyme (LdE1)
- Type: functional
- Design: scale not given: direction of the effect not stated beside the values
- RECORDED CONDITIONS: 30 µM
Measured potencies and affinities stand elsewhere.
READOUT NAME: Percent Effect (%)
Provide only the numeric value, understood in %.

query: Return reported Percent Effect; argument: `CN(C)C(=O)CN1C(=O)CCC12CCN(Cc1cccn1C)CC2`
result: -1.3

query: Using the record for `CN(Cc1ccsc1)C(=O)Nc1ccc(S(C)(=O)=O)nc1` , report its Percent Effect.
result: 22.8

query: I am curious: what Percent Effect value has been reported for `CC(C)(C)OC(=O)NC(C)(C)c1noc(CN2CCCCC2)n1` ?
result: 8

query: What does the data say about its Percent Effect? Entry: `Cc1ccc(-c2cc(N)c(=O)n(CC(=O)NCC3CCCCC3)n2)s1`
result: 9.46

query: Quick check: Percent Effect of O=C(Cc1ccccc1)N1CCC2(CC(=O)N(c3ccsc3)C2)C1 (centres undefined) ?
result: 8.11

query: Could you share which Percent Effect value was measured for COC(=O)c1ccc(N2CCN(C(=O)c3cnn(C)c3)C(C)C2)cc1 (centres undefined) ?
result: 17.7

query: Percent Effect for `CCCNC(=O)c1ccc(NC(=O)c2cccc(OCC)c2)cc1` ?
result: -5.41

query: // lookup Percent Effect for CN(C)CCOCC1CN(Cc2ccsc2)Cc2ccnn2C1 (centres undefined)
result: -1.3

query: What measured Percent Effect goes with COc1cccc(OCC2CCCN(C3CCN(C(C)=O)CC3)C2)c1 (centres undefined) ?
result: 5.41

query: What value of Percent Effect has been reported for the following compound? `CC(C)n1c(=O)nc2n1C(=O)N(c1ccc(F)cc1)C2`
result: 13.2

query: For CC(C)(C)c1cn2nc(N3CCOC(Cn4cncn4)C3)sc2n1 (centres undefined) , what is its reported Percent Effect?
result: 23.1

query: I have this compound here, CCOCC(O)CN1CCN(C(=O)c2cccnc2OC)CC1 (centres undefined) , and I need its recorded Percent Effect.
result: 0

query: Data request, read-out Percent Effect, for `CC(C)n1cc(C(=O)N2Cc3ccccc3OC3(CCOCC3)C2)cn1`
result: 9.46

query: Any idea what Percent Effect was measured for `O=C(CO)N1CCc2onc(Cn3cccn3)c2C1` ?
result: 3.9

query: For the compound shown here, `CCN1CCn2nc(CCC(=O)N3CCCC3)cc2C1` , give the reported Percent Effect.
result: 2.7

query: Query: Percent Effect; subject: CC(NC(=O)N1CCN(c2ccccc2)CC1)c1nncn1C (centres undefined)
result: 10.7

query: Name the reported Percent Effect value associated with the compound Cc1ccc(CCN2CCC(N(C)Cc3noc(C4CC4)n3)C2)cc1 (centres undefined)
result: 10.3

query: Can you look up the measured Percent Effect of `CCc1cnc(N)nc1NCCN1CCCCC1` for me?
result: 13

query: Give the measured Percent Effect of CCC(NC(=O)CC(F)(F)F)c1ccccc1OCC(=O)N1CCCC1 (centres undefined) .
result: 15.4

query: Item under review: `Cc1nc(N2CCCCC2)ncc1C(=O)N1CC(C)(C)[C@@](C)(O)C1` . Reported Percent Effect?
result: 0

query: # query: Percent Effect of entry CC(C)NC(=O)CC1COC2(CCN(Cc3ccccc3)CC2)C1 (centres undefined)
result: 16.9

query: Entry under review: O=C(Nc1nncs1)NC1CCOc2ccccc21 (centres undefined) . Reported Percent Effect?
result: 2.74

query: Name the reported Percent Effect value associated with the compound `Cc1cc(C)c(OCC(=O)NS(=O)(=O)c2cccnc2)c(C)c1`
result: 21.1

query: // lookup Percent Effect for `CC(C)CN1CCCn2nc(CNC(=O)CCN)cc2C1`
result: 5.33

---

- Species on record: Homo sapiens
- EXPERIMENTAL DETAILS: To identify inhibition of the IFN signalling (Jak-Stat) pathway via expression of an eGFP reporter gene under the control of an IFN-stimulated response element (ISRE) containing MxA promoter.
- Format: functional
- Parameters: scale not given: direction of the effect not stated beside the values
- RECORDED CONDITIONS: 30 µM
READOUT NAME: Percent Effect (%)
Kindly provide the numeric value in % only, without the unit symbol.

query: Dear colleague, I am looking for the recorded Percent Effect of the following compound: `COCCO[C@H]1CCN(C(=O)c2cc(C)on2)[C@H]1Cc1ccccc1`
result: 18.8

query: # get_value(readout='Percent Effect', item= `CC(=O)N1CCC2(CC1)C(=O)N(CC1CC1)c1ccccc12` )
result: 6.99

query: Which Percent Effect reading was recorded for the compound CC(C)C(C)NC(=O)Nc1ccccc1CN1CCOCC1 (centres undefined) ?
result: -10.3

query: Recorded Percent Effect for CCc1nc(CN(C)C2CCN(CCS(C)(=O)=O)C2)no1 (centres undefined) , please?
result: 4.92

query: Looking for the measured Percent Effect of C1CC(CN2CCOCC3(CCN(C4CCOCC4)C3)C2)CCO1 (centres undefined) , can you help?
result: 3.41

query: # Percent Effect lookup, item `NC(=O)c1cc(NC(=O)NCCc2cc(F)cc(F)c2)ccc1F`
result: -4.36

query: Dear colleague, I am looking for the recorded Percent Effect of the following compound: CCC(CC)C(O)CNC(=O)Nc1cc(C)nn1C (centres undefined)
result: -23.6

query: Given the entry CCn1nnc2c1C(COC)CN(Cc1ccsc1)C2 (centres undefined) , report its measured Percent Effect.
result: -14.5

query: Given O=C(Cc1ccccc1)N1CCC2(CC(=O)N(c3cccc(F)c3)C2)C1 (centres undefined) , state its recorded Percent Effect.
result: -6.6

query: Item under review: `CC1=N[C@@]2(CC[C@@H]3CN(S(=O)(=O)N(C)C)C[C@@H]32)C(=O)N1CC(C)C` . Reported Percent Effect?
result: 6.52

query: Quick one: Percent Effect for Cc1nc(C)n(CC2CN(Cc3cccc(C#N)c3)CCO2)n1 (centres undefined) ?
result: 0.861

query: Need Percent Effect, item `CCc1ncc2c(n1)CN(Cc1nc(-c3ccsc3)no1)CC2`
result: -16.8

query: Dear colleague, I am looking for the recorded Percent Effect of the following compound: `Cc1ccnc(OCC(=O)N2CCC(C(N)=O)CC2)n1`
result: 7.23

query: Quick one: Percent Effect of Cc1cc(NC(=O)NCC(O)c2ccc(Cl)cc2Cl)n(C)n1 (centres undefined) ?
result: -20.8

query: Field request: Percent Effect | item: `O=C(C1CCOCC1)N1C[C@@H]2C[C@@H](c3nc(C4CC4)cs3)O[C@@H]2C1`
result: 1.09

query: I am curious: what Percent Effect value has been reported for Cc1nc(C)n(CC2CCCN2CCOc2ccc(C#N)cc2)n1 (centres undefined) ?
result: 17.9

query: // Percent Effect lookup, key: `Cc1ncnc2c1CCN(Cc1ccc3c(c1)OCO3)CC2`
result: -10.2

query: Give the measured Percent Effect of Cc1nn(C)c(C)c1CC(=O)N1CCCC(n2ccnc2)C1 (centres undefined) .
result: -1.26

query: Please give the measured Percent Effect for this compound: Cc1noc(CN2CCOC(CN(C)C)C2)n1 (centres undefined)
result: 22.3

query: I am curious: what Percent Effect value has been reported for Cc1cc(C)n(CC2CCCCN2CCCS(N)(=O)=O)n1 (centres undefined) ?
result: 8.38

query: # get_value(readout='Percent Effect', item= `Cc1ncsc1C(=O)NCCSCc1cccs1` )
result: 16.5

query: I'd like to know its Percent Effect. The compound in question is Cc1ccc(-c2noc(CN3CCOC(CN(C)C)C3)n2)cc1F (centres undefined)
result: 20.6

query: Please look up its Percent Effect: CCC(O)CN1CCN(C(=O)c2cccn2Cc2ccccc2)CC1 (centres undefined)
result: 20.8

query: Please give the measured Percent Effect for this compound: `Cc1cccc(CN2C(=O)CO[C@@H]3CN(CCO)C[C@H]32)c1`
result: 10.1

---

- Test system: Trypanosoma cruzi
- EXPERIMENTAL DETAILS: Trypanosoma cruzi phosphomannomutase and mannose-1-phosphate guanylyltransferase assay
- Format: functional
- Parameters: scale not given: direction of the effect not stated beside the values
- RECORDED CONDITIONS: 10 µM
READOUT NAME: Percent Effect (%)
Respond with the bare value in %.

query: Need Percent Effect of `Cc1cc(CN(C)C(=O)c2ccc(F)cc2Br)no1` , thanks.
result: -5.35

query: May I ask what Percent Effect has been recorded for COc1ccccc1-c1noc(CN2CCCC2Cn2cccn2)n1 (stereo unspecified) ?
result: 3.01

query: Name the recorded Percent Effect for Cc1nc(C)n(C2CCCN(C(=O)Cc3cccnc3)C2)n1 (stereo unspecified) .
result: 0.586

query: I have this molecule here, COCCN(C)CCN1CC2(CCN(C3CCCOC3)CC2)OC1=O (stereo unspecified) , and I need its recorded Percent Effect.
result: 0.295

query: // Percent Effect lookup, key: `Cc1nc(N2CCCCC2)ncc1C(=O)N1CC(C)(C)[C@@](C)(O)C1`
result: -2.05

query: Could you share which Percent Effect value was measured for `Cc1cc(N2CCC(c3nnc(CN(C)C)n3C3CC3)CC2)ccn1` ?
result: -4.37
